Numbers sourced from patent US8889677B2.

- targetSystem: human recombinant mGluR5 (Homo sapiens, UniProt P41594)
- Construct: expressed in transfected cells; host or cells: HEK 293 cell line cultured with tetracycline, hygromycin and geneticin; tetracycline removed 3-7 days before the assay
- Sequence (P41594 21-1212): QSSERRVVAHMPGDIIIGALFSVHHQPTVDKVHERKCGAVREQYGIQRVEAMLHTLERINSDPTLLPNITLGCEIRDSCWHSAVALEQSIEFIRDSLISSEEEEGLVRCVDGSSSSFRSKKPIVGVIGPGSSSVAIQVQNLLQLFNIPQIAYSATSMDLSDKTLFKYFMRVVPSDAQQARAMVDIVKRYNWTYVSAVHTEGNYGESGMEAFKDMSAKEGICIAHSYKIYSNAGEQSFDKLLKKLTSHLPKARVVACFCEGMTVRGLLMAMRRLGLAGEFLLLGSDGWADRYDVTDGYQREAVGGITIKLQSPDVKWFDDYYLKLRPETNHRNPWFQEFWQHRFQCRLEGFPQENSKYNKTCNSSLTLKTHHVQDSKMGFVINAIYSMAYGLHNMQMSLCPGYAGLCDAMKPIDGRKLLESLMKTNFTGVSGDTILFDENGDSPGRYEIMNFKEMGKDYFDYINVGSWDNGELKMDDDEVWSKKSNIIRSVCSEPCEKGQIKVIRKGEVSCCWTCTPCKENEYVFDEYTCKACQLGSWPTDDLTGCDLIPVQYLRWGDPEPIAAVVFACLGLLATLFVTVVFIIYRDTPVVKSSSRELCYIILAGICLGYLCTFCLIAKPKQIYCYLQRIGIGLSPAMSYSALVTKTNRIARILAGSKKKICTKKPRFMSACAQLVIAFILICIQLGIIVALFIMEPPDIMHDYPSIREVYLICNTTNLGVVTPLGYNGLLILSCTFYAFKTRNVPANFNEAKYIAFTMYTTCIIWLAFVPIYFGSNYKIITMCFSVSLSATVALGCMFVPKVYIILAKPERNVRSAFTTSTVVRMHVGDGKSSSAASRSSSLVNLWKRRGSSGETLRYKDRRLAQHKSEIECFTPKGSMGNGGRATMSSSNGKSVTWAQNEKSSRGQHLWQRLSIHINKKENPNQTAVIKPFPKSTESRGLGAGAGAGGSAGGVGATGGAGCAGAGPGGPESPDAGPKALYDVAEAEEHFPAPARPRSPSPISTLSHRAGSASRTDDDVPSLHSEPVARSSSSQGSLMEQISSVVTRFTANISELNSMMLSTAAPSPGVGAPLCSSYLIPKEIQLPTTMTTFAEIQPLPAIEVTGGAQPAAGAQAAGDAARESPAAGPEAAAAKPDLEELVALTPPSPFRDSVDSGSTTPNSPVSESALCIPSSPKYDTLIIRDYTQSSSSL
- testSummary: positive modulation of mGluR5, calcium based FLIPR assay in HEK 293 cells
- recordedConditions: HEK 293 cell line expressing human recombinant mGluR5; EC50 of the modulation of the glutamate response (glutamate approx. 5% basal stimulation); peak height of Ca release fluorescence signal
measuredAttribute: pEC50
Numbers only, as −log10 of the molar value.

{"columns": ["compound", "targetSystem", "pEC50"],
 "data": [
  ["COc1ccc(-c2nc(-c3ccc(OC)cc3)n(CC(=O)N3CCN(c4ccc(Cl)cn4)CC3)n2)cc1", "human recombinant mGluR5 (Homo sapiens, UniProt P41594)", 6.48],
  ["Cc1cc(-c2nc(C3CCCCC3)n(CC(=O)N3CCN(c4ncc(Br)cn4)CC3)n2)ccc1F", "human recombinant mGluR5 (Homo sapiens, UniProt P41594)", 6.50],
  ["COc1cc(N2CCN(C(=O)Cn3nc(-c4ccccc4)nc3-c3ccc(F)c(C)c3)CC2)ncn1", "human recombinant mGluR5 (Homo sapiens, UniProt P41594)", 6.49],
  ["O=C(Cn1nc(-c2ccc(F)cc2)nc1-c1ccc(F)cc1)N1CCN(c2cc(N3CCC(O)CC3)ncn2)CC1", "human recombinant mGluR5 (Homo sapiens, UniProt P41594)", 6.55],
  ["COc1cccc(N2CCN(C(=O)Cn3nc(-c4ccc(F)cc4)nc3-c3ccc(F)cc3)CC2)c1", "human recombinant mGluR5 (Homo sapiens, UniProt P41594)", 6.33],
  ["COc1ccc(-c2nc(-c3ccc(F)cc3)n(CC(=O)N3CCN(c4cc(OC)ccn4)CC3)n2)cc1", "human recombinant mGluR5 (Homo sapiens, UniProt P41594)", 7.52],
  ["COc1cc(N2CCN(C(=O)Cn3nc(-c4ccc(F)cc4)nc3-c3ccc(F)cc3)CC2)ccn1", "human recombinant mGluR5 (Homo sapiens, UniProt P41594)", 6.60],
  ["COc1cc(N2CCN(C(=O)Cn3nc(-c4ccc(F)c(C)c4)nc3C3CCCCC3C)CC2)ncn1 (centres unmarked)", "human recombinant mGluR5 (Homo sapiens, UniProt P41594)", 5.98]
]}

Okay, here is my list. What is pEC50 for each of these?
1. COc1cccc(-c2nc(-c3ccc(F)cc3)n(CC(=O)N3CCN(c4ccccn4)CC3)n2)c1
2. COCCOc1cc(N2CCN(C(=O)Cn3nc(-c4ccc(F)cc4)nc3-c3ccc(F)cc3)CC2)ncn1
3. COc1cc(OC)cc(-c2nc(-c3ccccc3)n(CC(=O)N3CCN(c4ncccn4)CC3)n2)c1
4. O=C(Cn1nc(-c2ccc(F)cc2)nc1-c1ccc(F)cc1)N1CCN(c2cc(OCc3ccccn3)ncn2)CC1
5. Cc1cc(-c2nc(C3CCCC(C)C3)n(CC(=O)N3CCN(c4ncccn4)CC3)n2)ccc1F (centres unmarked)
6. COc1ccc(-c2nc(-c3ccc(F)cc3)nn2CC(=O)N2CCN(c3ncc(Br)cn3)CC2)cc1
7. COc1cccc(-c2nc(-c3ccc(F)cc3)nn2CC(=O)N2CCN(c3ccccn3)CC2)c1
8. COc1cc(-c2nc(-c3ccc(F)cc3)n(CC(=O)N3CCN(c4ncccn4)CC3)n2)ccc1F

[7.43, 7.00, 6.26, 7.33, 6.43, 7.06, 6.34, 7.74]
